Test system: U-251
Test: NCI tumour cell line growth inhibition, 48 h
Active and inactive are the calls of the source. No stated cut-off is given here; in the data, active = GI50 up to about 1.1 µM and inactive = higher.
Labels: active, inactive

1) CNC(=O)OCc1c(COC(=O)NC)c(-c2ccc(Cl)c(Cl)c2)n2c1SCC2: inactive
2) Nc1nc2c(N)cc(C(F)(F)F)cc2nc1-c1ccccc1: inactive
3) COP(=O)(OC)/C(=C/c1cn(C(c2ccccc2)(c2ccccc2)c2ccccc2)cn1)NC=O: inactive
4) CCCNC(=S)NNC(=O)CSc1nc(-c2ccccc2)c(-c2ccccc2)[nH]1: inactive
5) O=[Se](O)O: active
6) Cc1cc(OC(=O)Nc2ccc(Cl)cc2)ccc1C(=S)Nc1ccccc1: inactive
7) COc1ccc2nccc(NCCCN3CCN(CCCNc4ccnc5ccc(OC)cc45)CC3)c2c1: active
8) CCc1cccc(CC)c1Nc1nc(-c2ccccc2-c2ccccc2)cs1: inactive
